Measured hGCGR pEC50 (cAMP), listed per entry.
assaySystem: human glucagon receptor (GCGR) (human, UniProt P47871 26-477)
protocol: cell-based or functional assay
Where no end group is shown, it is not given here.
propertyName: hGCGR pEC50 (cAMP) (pEC50)

YTHGTFTSDYSKWLDSARAQEFVKWLEDEPSSGAPPPS-OH [Compound A39] | 9.4
YSHGTFTSDYSKYLDQARAQEFVKWLEDEPSSGAPPPS-OH [Compound A44] | 11.9
YTHGTFTSDHSKWLDEARAQEFVKWLEDEPSSGAPPPS-OH [Compound A41] | 9.2
YSHGTFTSDYSKYLDSARAQEFVKWLEDEPSSGKPPPS-OH [Compound A61] | 11.4
